All values here come from ChEMBL document CHEMBL1201862.

System: HOP-18
assayProtocol: NCI tumour cell line growth inhibition, 48 h
Calls of active or inactive are those of the source. No stated cut-off is given here; in the data, active = GI50 up to about 1.1 µM and inactive = higher.
Recorded measurements of GI50, one per entry
measurementKind: GI50

compound	measurementKind	reportedMeasurement
COC(=O)C1=C(O)C(O)=C(C(=O)OC)CC1	GI50	> 100 µM (inactive)
O=[N+]([O-])c1cccc(C2ON2C2CCCCC2)c1 (configuration not stated)	GI50	30.8 µM (inactive)
CCOc1ccc(/N=N/c2ccc3oc(=O)c(/C(C)=N/NC(=O)CC(=O)Nc4cccc(OC)c4)cc3c2)cc1	GI50	17.1 µM (inactive)
COc1cc(C2C(C(=O)Nc3ccccc3)=C(C)NC(C)=C2C(=O)Nc2ccccc2)ccc1O	GI50	99.3 µM (inactive)
CCOc1ccc2c(c1)[n+]([O-])c(C(N)=O)c(N)[n+]2[O-]	GI50	> 100 µM (inactive)
Cc1nc2c(n1C)C(=O)c1nc(CBr)[nH]c(=O)c1C2=O	GI50	> 100 µM (inactive)
CC(/C(=N/NC(=O)C(N)=O)c1c(Cl)ccc(Cl)c1O)C1(O)C(=O)Nc2ccccc21 (configuration not stated)	GI50	34.8 µM (inactive)
C[N+](C)(C)CC(=O)N/N=C(/C=C/c1ccccc1)CC1OC(=O)c2ccccc21 (configuration not stated)	GI50	> 100 µM (inactive)
CCOP(=O)(Cc1ccc(CP(=O)(OCC)OCC)n1C)OCC	GI50	75 µM (inactive)
CCc1cccc(CC)c1NC(=O)C1=C(C)NC(C)=C(C(=O)Nc2c(CC)cccc2CC)C1c1ccc2c(c1)OCO2	GI50	20.6 µM (inactive)
COc1cc(OC(=O)c2ccccc2)cc2c1C(=O)C=CC2=O	GI50	16.6 µM (inactive)
NC(=O)C(=O)n1ncc(Cl)c(Cl)c1=O	GI50	20 µM (inactive)

----------
Test system: HCT-116
assayProtocol: NCI tumour cell line growth inhibition, 48 h
The source made the active and inactive calls. No stated cut-off is given here; in the data, active = GI50 up to about 1.1 µM and inactive = higher. Numbered stars: 1 amine (or outer) side, 2 acyl side, 3 side chain; on linkers, the order of the positions; unused ones are H or OH. Starred links: 1 amine or outer side, 2 acyl side, 3 side chain; linkers in the order of their positions; H or OH if unused. Positions of bridges follow the written chain, without caps; N, C: chain ends. Non-standard residues stand in square brackets, D forms with d. Square brackets hold non-standard residues; d marks the D form. Residues, ends and D or L forms follow the SMILES beside them. Peptide text beside a SMILES is read from it. * marks the point of attachment. *: point of attachment. X40 = CC[C@H](C)[C@@H](N[*:1])[C@@H](O)CC(=O)[*:2]; X30 = CC(=O)N(C)SCC(N[*:1])C(=O)[*:2]; NMeY = CN[C@@H](Cc1ccc(O)cc1)C(=O)O; dNMeL = CN[C@H](CC(C)C)C(=O)O; Hiv = CC(C)[C@H](O)C(=O)O; Pyruvoyl = CC(=O)C(=O)*; Cbz = O=C(OCc1ccccc1)*; Bn = c1ccc(C*)cc1
Classes used: active, inactive

molecule	qualitativeLabel
COCN1CCN=c2c1c1c3c(c4ccccc4n23)CCC1	inactive
CC[C@H](C)[C@H]1NC(=O)[C@@H](NC(=O)[C@@H](CC(C)C)N(C)C(=O)[C@@H]2CCCN2C(=O)C(C)=O)[C@@H](C)OC(=O)[C@H](Cc2ccc(OC)cc2)N(C)C(=O)[C@@H]2CCCN2C(=O)[C@H](CC(C)C)NC(=O)[C@H](C(C)C)OC(=O)C[C@@H]1O (Pyruvoyl-P[dNMeL]T[X40][Hiv]LP[NMeY](Me); ester 3-C)	active
O=C(N/N=C1/C(=O)c2c3ccccc3cc3cccc1c23)c1cccc(Cl)c1	inactive
O=C1C=CC(=O)c2cc(Sc3ccccc3)c(=O)c(Sc3ccccc3)cc21	inactive
CCSC12CC3c4cccc5c4C(CN5C(=O)c4ccccc4)CC3(O1)N(C)C2=O (stereo unspecified)	inactive
CCOP(=O)(O)CC1OC(CO)C(O)C1O (stereo unspecified)	inactive
CC(C)(Oc1ccc(-c2cccc3ccccc23)cc1)C(=O)O	inactive
CC[C@@]1(O)C(=O)OCc2c1c(Cl)c1n(c2=O)Cc2cc3ccccc3nc2-1	inactive
Cc1ccc2c(=O)c(C(=O)N(CCO)CCO)c[nH]c2n1	inactive
NC(=O)CC(Nc1ncc2c(n1)-c1ccccc1OC2)C(=O)O (stereo unspecified)	inactive
CN(C)c1ncc(-c2c[nH]c3ccccc23)nc1-c1c[nH]c2ccccc12	inactive
CC(=O)N(C)SCC(NC(=O)C(Cc1ccccc1)NC(=O)OCc1ccccc1)C(=O)NC(Cc1ccccc1)C(=O)NC(Cc1c[nH]c2ccccc12)C(=O)NC(CCCCNC(=O)OCc1ccccc1)C(=O)NC(C(=O)NC(CSN(C)C(C)=O)C(=O)NC(C(N)=O)C(C)OCc1ccccc1)C(C)OCc1ccccc1 (stereo unspecified) (Cbz-F[X30]FWK(Cbz)T(Bn)[X30]T(Bn)-NH2; configuration not given here)	inactive
NC(=O)c1cc2ccccc2c(/N=N/c2ccccc2)c1O	inactive
CCC1=[N+](CC)CCN1CC	inactive
COC1=CC(C2c3cc4c(cc3[C@@H](Nc3ccc(F)cc3)C3COC(=O)[C@H]23)OCO4)=CC(=O)C1=O (stereo partly specified)	inactive
C=Cc1c(-c2ccccc2)cnc2[nH]c3ccccc3c12	inactive
